Source of measurements: patent US20240287082A1

biological target: human GABAA α2β2γ1 receptor (Homo sapiens (Human), UniProt P47869+Q8N1C3); assay: Radioligand binding assay, competition for [3H]RO7239181, γ1-containing GABAA subtype α2β2γ1; conditions: Log[Ki α1β3γ2 (nM)/Ki α2β2γ1 (nM)]
For each record, write down the corresponding LogSel.
Give bare numbers.

Reference set, count: 5
Compound String | Measure | Reading
O=c1ccn2c(n1)CN=C(c1c(F)cccc1F)c1c-2ccc(Br)c1Cl | LogSel | 1.85
C[C@@H]1N=C(c2c(F)cccc2F)c2c(ccc(Cl)c2Br)-n2cc(Br)c(=O)nc21 | LogSel | 1.61
Cc1cn2c(nc1=O)[C@H](C)N=C(c1c(F)cccc1F)c1c-2ccc(Cl)c1Cl | LogSel | 1.79
C[C@@H]1N=C(c2c(F)cccc2F)c2c(ccc(C(F)(F)F)c2Cl)-n2ccc(=O)nc21 | LogSel | 2.05
C[C@@H]1N=C(c2c(F)cccc2F)c2c(ccc(Br)c2Cl)-n2cc(Br)c(=O)nc21 | LogSel | 2.27

Items follow; give LogSel for each.
1. CNC(=O)c1cn2c(nc1=O)[C@H](C)N=C(c1c(F)cccc1F)c1c-2ccc(C(F)(F)F)c1Cl
2. CCOCCc1cn2c(nc1=O)CN=C(c1c(F)cccc1F)c1c-2ccc(C(F)(F)F)c1Cl

Response:
[2.47, 2.60]

###

Target: human GABAA α2β2γ1 receptor (Homo sapiens (Human), UniProt P47869+Q8N1C3)
Experiment: Radioligand binding assay, competition for [3H]RO7239181, γ1-containing GABAA subtype α2β2γ1
Method: The affinity of compounds at GABAA γ1 subunit-containing receptors was measured by competition for [^3H]RO7239181 (67.3 Ci/mmol; Roche) binding to membranes from HEK293F cells (ThermoFisher R^79007) expressing human (transiently transfected) receptors of composition α5β2γ1, α2β2γ1, α1β2γ1. […]
Measure: pKi
One number for each entry, as −log10 of the molar value.

Compound String | Measure | Reading
CCc1cn2c(nc1=O)[C@H](C)N=C(c1c(F)cccc1F)c1c-2ccc(C(F)(F)F)c1Cl | pKi | 7.40
Cc1ccc2c(c1Cl)C(c1c(F)cccc1F)=N[C@@H](C)c1nc(=O)c(C)cn1-2 | pKi | 7.42
O=c1ccn2c(n1)CN=C(c1c(F)cccc1F)c1c-2ccc(Br)c1Cl | pKi | 8.34
C[C@@H]1N=C(c2c(F)cccc2F)c2c(ccc(Cl)c2Br)-n2cc(Br)c(=O)nc21 | pKi | 7.13
O=c1ccn2c(n1)CN=C(c1ncccc1F)c1c-2ccc(Cl)c1Cl | pKi | 6.95

Okay, now this molecule:
Prompt: Identify pKi associated with the molecule O=c1nc2n(cc1Br)-c1ccc(Cl)c(Cl)c1C(c1c(F)cccc1F)=NC2
Response: 7.97

###

molecular target: human GABAA α1β2γ1 receptor (Homo sapiens (Human), UniProt P14867+Q8N1C3); experiment: Radioligand binding assay, competition for [3H]RO7239181, γ1-containing GABAA subtype α1β2γ1; details: membranes of HEK293F cells, [3H]RO7239181 20-30 nM, mean of two determinations
Measure: pKi
Answers are plain numbers, as −log10 of the molar value.

Reference set, count: 4
Molecule | Measure | Reading
C[C@@H]1N=C(c2c(F)cccc2F)c2c(ccc(C(F)(F)F)c2Cl)-n2ccc(=O)nc21 [Example 10] | pKi | 6.80
Cc1cn2c(nc1=O)[C@H](C)N=C(c1c(F)cccc1F)c1c-2ccc(C(F)(F)F)c1Cl [Example 9] | pKi | 7.01
CNC(=O)c1cn2c(nc1=O)[C@H](C)N=C(c1c(F)cccc1F)c1c-2ccc(C(F)(F)F)c1Cl [Example 27] | pKi | 7.17
O=c1ccn2c(n1)CN=C(c1ccccc1F)c1c-2ccc(Cl)c1Cl [Example 1] | pKi | 7.20

Okay, now this molecule:
Prompt: Identify pKi associated with the molecule C[C@@H]1N=C(c2c(F)cccc2F)c2c(ccc(C(F)(F)F)c2Cl)-n2cc(CO)c(=O)nc21 [Example 29]
Response: 6.95

###

target: human GABAA α2β2γ1 receptor (Homo sapiens (Human), UniProt P47869+Q8N1C3); assay: Radioligand binding assay, competition for [3H]RO7239181, γ1-containing GABAA subtype α2β2γ1; details: Log[Ki α1β3γ2 (nM)/Ki α2β2γ1 (nM)]
Measure: LogSel
Answers are plain numbers.

Compound String | Study System | Measure | Reading
O=c1ccn2c(n1)CN=C(c1ncccc1F)c1c-2ccc(Cl)c1Cl | human GABAA α2β2γ1 receptor (Homo sapiens (Human), UniProt P47869+Q8N1C3) | LogSel | 1.29
O=c1nc2n(cc1Br)-c1ccc(Br)c(Cl)c1C(c1c(F)cccc1F)=NC2 | human GABAA α2β2γ1 receptor (Homo sapiens (Human), UniProt P47869+Q8N1C3) | LogSel | 2.39
CCc1cn2c(nc1=O)[C@H](C)N=C(c1c(F)cccc1F)c1c-2ccc(C(F)(F)F)c1Cl | human GABAA α2β2γ1 receptor (Homo sapiens (Human), UniProt P47869+Q8N1C3) | LogSel | 2.18

Items follow; give LogSel for each.
1. C[C@@H]1N=C(c2c(F)cccc2F)c2c(ccc(C(F)(F)F)c2Cl)-n2cc(CO)c(=O)nc21
2. CCO/C=C/c1cn2c(nc1=O)[C@H](C)N=C(c1c(F)cccc1F)c1c-2ccc(C(F)(F)F)c1Cl
3. Cc1cn2c(nc1=O)[C@H](C)N=C(c1c(F)cccc1F)c1c-2ccc(C(F)(F)F)c1Cl
4. C[C@@H]1N=C(c2c(F)cccc2F)c2c(ccc(Br)c2Cl)-n2ccc(=O)nc21
5. CCO/C=C/c1cn2c(nc1=O)[C@H](C)N=C(c1c(F)cccc1F)c1c-2ccc(Cl)c1Cl

Response:
2.47
2.02
2.32
1.73
1.68

Items follow; give LogSel for each.
1. CCOCCc1cn2c(nc1=O)CN=C(c1c(F)cccc1F)c1c-2ccc(Cl)c1Cl
2. O=c1ccn2c(n1)CN=C(c1c(F)cccc1F)c1c-2ccc(Cl)c1Cl

Response:
1.78
1.68
